# Tested on: L1210 leukemia ip in BDF1 mice, survival T/C
# Procedure text: NCI In Vivo Anticancer Drug Screen. Data for tumor model L1210 Leukemia (intraperitoneal) in B6D2F1 (BDF1) mice
# Assay setup: endpoint: mean survival time; dose: 150.0 mg/kg/injection; schedule: Q01DX001 (ip); vehicle: saline; higher = longer survival
Inconclusive results and toxic doses are left out.

[
  {
    "Molecule": "CNC(=O)OCCOC(=O)c1ccc(OC(=O)NC)cc1",
    "T/C": "95 % of control"
  },
  {
    "Molecule": "CC/C=C(\\C)C1(CC)C(=O)NC(=O)NC1=O",
    "T/C": "95 % of control"
  },
  {
    "Molecule": "CC/C(=N\\NS(=O)(=O)c1ccc(C)cc1)C(C)C",
    "T/C": "95 % of control"
  },
  {
    "Molecule": "COC1CCCNC1CC(=O)Cn1cnc2cc3c(cc2c1=O)OCO3 (configuration not stated)",
    "T/C": "107 % of control"
  },
  {
    "Molecule": "CCC(=O)CC1CCCC(CC(=O)CC)N1 (configuration not stated)",
    "T/C": "104 % of control"
  },
  {
    "Molecule": "NNC(=O)NO",
    "T/C": "103 % of control"
  },
  {
    "Molecule": "OC1C2c3ccccc3C(c3ccccc32)C1O (configuration not stated)",
    "T/C": "93 % of control"
  }
]

====

# Test system: L1210 leukemia ip in BDF1 mice, survival T/C
# Procedure text: NCI In Vivo Anticancer Drug Screen. Data for tumor model L1210 Leukemia (intraperitoneal) in B6D2F1 (BDF1) mice
# Assay setup: endpoint: mean survival time; dose: 100.0 mg/kg/injection; schedule: Q04DX003 (ip); vehicle: acetone; higher = longer survival
Toxic doses and inconclusive results are not listed.
A collection of compounds and their measured T/C

[
  {
    "Compound": "Cc1c(O)cccc1N(C)C",
    "Target desc": "L1210 leukemia ip in BDF1 mice, survival T/C",
    "T/C": "111 % of control"
  },
  {
    "Compound": "COC(=O)CCC(NC(=O)C1CCN(C(=O)OCc2ccccc2)CC1)C(=O)OC (centres undefined)",
    "Target desc": "L1210 leukemia ip in BDF1 mice, survival T/C",
    "T/C": "95 % of control"
  },
  {
    "Compound": "CNC(=O)c1ccc[n+](CC(=O)Nc2ccc(Cl)cc2)c1",
    "Target desc": "L1210 leukemia ip in BDF1 mice, survival T/C",
    "T/C": "110 % of control"
  },
  {
    "Compound": "CC(C)N1CCC1C (centres undefined)",
    "Target desc": "L1210 leukemia ip in BDF1 mice, survival T/C",
    "T/C": "96 % of control"
  },
  {
    "Compound": "CCN(CC)C(=O)C(Br)C(Br)C(=O)N(CC)CC (centres undefined)",
    "Target desc": "L1210 leukemia ip in BDF1 mice, survival T/C",
    "T/C": "100 % of control"
  },
  {
    "Compound": "CN1N=Nc2cccc3cccc1c23",
    "Target desc": "L1210 leukemia ip in BDF1 mice, survival T/C",
    "T/C": "94 % of control"
  },
  {
    "Compound": "O=S(=O)(/C=C/c1ccccc1)c1ccc2ccccc2c1",
    "Target desc": "L1210 leukemia ip in BDF1 mice, survival T/C",
    "T/C": "102 % of control"
  },
  {
    "Compound": "CC1OCC(C)C(C)(C)O1 (centres undefined)",
    "Target desc": "L1210 leukemia ip in BDF1 mice, survival T/C",
    "T/C": "112 % of control"
  },
  {
    "Compound": "C=COC(=O)N(C)C",
    "Target desc": "L1210 leukemia ip in BDF1 mice, survival T/C",
    "T/C": "96 % of control"
  }
]
